Molecular target: T1, Histidine-tagged canine PD-1 protein (canine)
T1 sequence: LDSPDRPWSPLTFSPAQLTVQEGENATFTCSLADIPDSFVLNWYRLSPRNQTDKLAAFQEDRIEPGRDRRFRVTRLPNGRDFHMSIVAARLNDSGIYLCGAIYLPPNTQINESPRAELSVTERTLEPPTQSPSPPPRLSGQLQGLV
Assay: SPR (Biacore), dPD-1-His amine-coupled to CM5 chip, antibody injected, 1:1 Langmuir fit
Observable: pKd
// pKd here means minus log10 of the molar concentration (mol/L)

Previously resolved entries follow.
Query block: Dear colleague, please send me the reported pKd for 1D8-H2K1-dIgG4 (antibody, V domains shown) VH: EVQLVESGGDLVKPVGSLRLSCVASGFTFNNFGMSWVRQAPGKGLEWVATLSSGSSYTYYSDSVKGRFTISRDNAKNTLYLQMNSLRAEDTAMYYCTRGESRFAYWGQGTLVTVSA VL: GVVITQDPLSLAVTPGELVTISCRSSKSLLYKDGKTYLNWYLQKPGQTPRLLIYLMSTRASGVSDRFSGSGSGTDFTLKISRVEAEDVGVYYCQQLIEYPLTFGAGTKVELK when you can.
Result block: 8.27

Query block: Provide one value: measured pKd of 1B9-H1K2-IgG4 (antibody, V domains shown) VH: EVQLVQSGAEVKKPGASVKVSCKTSGYTFTSFWMNWVRLAPGAGLDWIGRVDPYDSETHYNQKFKDRVILTVDTSTSTAYMELSSLRAGDIAVYYCATQFGFSWLAYWGQGTLVTVSA VL: DIVMTQSPGSLAVSAGESVSINCKSSQSLLYSSNQKNYLAWYQQKPGESPKLLIYWASTRESGVPDRFSGSGSGTDFTLTINNVQAEDVGVYYCQQYYSNPYTFGQGTKLEIK
Result block: 8.99

Query block: Return the recorded pKd value; entry: 4A7-mHvKv-dIgG4 (antibody, V domains shown) VH: EVQLVESGGDLVKPGGSLKLSCVASGFPFSNFGMSWVRQTPDKRLEWVATISSGSSYSYYSDSVKGRFTISRDNAKNTLFLQMNSLKSEDTAIFYCARGESRFAYWGQGTLVTVSA VL: DVVITQDELSNPVTSGESVSISCRSNKSLLYEDGQTYLNWFLQRPGQSPQLLIYLMSTRASGVSDRFSGSGSGTDFTLEISEVRAEDVGVYYCQQLIEYPLTFGAGTKLELKR
Result block: 9.54

More entries:
Query block: Look up and report measured pKd for this entry: 1B9-H1K1-IgG4 (antibody, V domains shown) VH: EVQLVQSGAEVKKPGASVKVSCKTSGYTFTSFWMNWVRLAPGAGLDWIGRVDPYDSETHYNQKFKDRVILTVDTSTSTAYMELSSLRAGDIAVYYCATQFGFSWLAYWGQGTLVTVSA VL: EIVMTQSPGSLAGSAGESVSINCKSSQSLLYSSNQKNYLAWYQQKPGESPKLLIYWASTRESGVPDRFSGSGSGTDFTLTINNLQAEDVGVYYCQQYYSNPYTFGQGTKLEIK
Result block: 8.97

Query block: Identify pKd associated with the binder 1D8-H2K2-dIgG4 (antibody, V domains shown) VH: EVQLVESGGDLVKPVGSLRLSCVASGFTFNNFGMSWVRQAPGKGLEWVATLSSGSSYTYYSDSVKGRFTISRDNAKNTLYLQMNSLRAEDTAMYYCTRGESRFAYWGQGTLVTVSA VL: GVVITQDPLSLAVTPGELVTISCRSSKSLLYKDGKTYLNWFLQKPGQTPRLLIYLMSTRASGVSDRFSGSGSGTDFTLKISRVEAEDVGVYYCQQLIEYPLTFGAGTKVELK
Result block: 8.36
